# test_target: human FATP2 (Homo sapiens, UniProt O14975)
# protocol_description: BODIPY-C16 FA uptake in HRPT cells stably expressing human FATP2
pIC50: −log10 of the molar value.
metric: pIC50

Quick note, pIC50 for CCCCCc1cccc(CC(=O)O)c1 [PBI-4050] landed at < 3.30

Attribution: paper PMC10527240
